# credit: ChEMBL document CHEMBL1201862

- Tested on: HL-60
- test: NCI tumour cell line growth inhibition, 48 h
Active and inactive are the calls of the source. No stated cut-off is given here; in the data, active = GI50 up to about 1.1 µM and inactive = higher. Peptide text beside a SMILES is read from it. * marks the point of attachment. Cbz = O=C(OCc1ccccc1)*
propertyName: GI50

// known answers, use as guide
1. CCOC(=O)C(C)NC(=O)C(C)NC(=O)C(C)NC(=O)C(C)NC(=O)C(C)NC(=O)C(C)NC(=O)C(C)NC(=O)OCc1ccccc1 (configuration not stated) (Cbz-AAAAAAA-OEt; configuration not given here) ... > 100 µM (inactive)
2. NC1(C(=O)OCc2ccccc2)CCCC1 ... 0.21 µM (active)
3. COc1cc2cc(C(=O)N3CC(CCl)c4ccc([N+](C)(C)Cc5ccc([N+](=O)[O-])cc5)cc43)[nH]c2c(OC)c1OC (configuration not stated) ... 2.04 µM (inactive)
4. CN(C)/C=N/n1c2ccccc2c2ccccc21 ... > 100 µM (inactive)
5. COc1cccc2c1[C@H]1CO[C@H]3C4C[C@H](C(=O)O)C([C@@H](C2)N13)N4C (some centres not stated) ... 1.62 µM (inactive)
6. O/N=C(\C(=N/O)Nc1ccc(-c2ccc(NC(=N/O)/C(=N\O)c3ccccc3)cc2)cc1)c1ccccc1 ... 27.9 µM (inactive)

Please state, for each entry, its recorded GI50.
1. Cc1cc(Cl)ccc1C(=O)c1ccc2ccccc2c1C(=O)O
2. Cc1cc(C)nc(NS(=O)(=O)c2ccc(NNc3c4ccccc4nc4c(C(=O)Nc5ccc(S(N)(=O)=O)cc5)cccc34)cc2)n1
3. C=C(CC(NC(=O)c1ccc(C(CC)Cc2cnc3nc(N)nc(N)c3n2)cc1)C(=O)O)C(=O)O (configuration not stated)

Result block:
["> 100 µM (inactive)", "34.9 µM (inactive)", "0.00376 µM (active)"]

Please state, for each entry, its recorded GI50.
1. COc1ccc2c(c1)[C@@]13CCN4CC5=CCO[C@H]6CC(=O)N2[C@H]1[C@H]6[C@H]5C[C@H]43
2. CCCCCCC(CCl)c1sc(-c2csc(CCNC(=O)OC(C)(C)C)n2)nc1C(=O)OC (configuration not stated)
3. Cc1nc2ccccc2n1CCc1nc2ccccc2s1
4. O=C1c2ccccc2C(=O)N1/N=C\c1ccc(Br)cc1

Result block:
18.1 µM (inactive)
17.3 µM (inactive)
14.3 µM (inactive)
> 10 µM (inactive)

Please state, for each entry, its recorded GI50.
1. COC(=O)C(=O)C(CC(=O)Nc1cccc(C(F)(F)F)c1)C(=O)OC (configuration not stated)
2. O=c1[nH]nc(Cc2ccccc2)n1N=C1CCCCC1
3. COC(=O)Nc1nc2cc(Oc3ccc4nc(NC(=O)OC)[nH]c4c3)ccc2[nH]1
4. O=C(/N=C1\SCCN1C(=O)C(C(F)(F)F)C(F)(F)F)C(C(F)(F)F)C(F)(F)F
5. COC(=O)C(C#CCCCCC#CC(NC(=O)OCc1ccccc1)(C(=O)OC)C(F)(F)F)(NC(=O)OCc1ccccc1)C(F)(F)F (configuration not stated)

Result block:
1. > 100 µM (inactive)
2. > 100 µM (inactive)
3. 0.608 µM (active)
4. > 100 µM (inactive)
5. > 100 µM (inactive)

Please state, for each entry, its recorded GI50.
1. [N-]=[N+]=CC(=O)CCC(N)C(=O)O (configuration not stated)
2. C=C1C(=O)O[C@@H]2/C=C(\C)CC/C=C(\C)CC[C@@]12O
3. NC(=O)NOCC1NC(=O)NC1=O (configuration not stated)
4. C#C[C@]1(O)[C@@H](CO)O[C@@H](n2ccc(N)nc2=O)[C@@H]1O
5. CSCCC(NCc1c(O)ccc2c(-c3ccccc3)cc(=O)oc12)C(=O)O (configuration not stated)

Result block:
["1.72 µM (inactive)", "0.771 µM (active)", "19.3 µM (inactive)", "< 0.0147 µM (active)", "> 100 µM (inactive)"]

Please state, for each entry, its recorded GI50.
1. CCN(CC)CC(C)C(=O)/C=C/c1ccc(C)cc1 (configuration not stated)
2. CC(C)(Oc1ccc(Cl)cc1)C(=O)N(C(=O)N1CCCCC1)c1ccccc1
3. CN(C)C(=O)/N=C1\SC(=N\c2ccccc2)/C(=N/c2ccccc2)N1c1ccc([N+](=O)[O-])cc1
4. Clc1ccc(CSCCc2ccncc2)cc1Cl

Result block:
["3.48 µM (inactive)", "2.16 µM (inactive)", "> 100 µM (inactive)", "17 µM (inactive)"]

Please state, for each entry, its recorded GI50.
1. C=CCn1c(=O)c(C(=O)NC(=O)OCC)cn(C2CCCCC2)c1=O
2. O=C1OC2CC=CC1C2 (configuration not stated)
3. COc1ccc(-n2sc3ncc(-c4ccccc4)cc3c2=O)cc1
4. O=C(O)CCC(N/C=C1/N=C(c2ccccc2)OC1=O)C(=O)O (configuration not stated)
5. O=C(NCC(O)CNC(=O)C(F)(F)F)C(F)(F)F
6. O=C(CCN1CCCCC1CO)Nc1ccc2c(c1)C(=O)c1ccc(NC(=O)CCN3CCCCC3CO)cc1C2=O (configuration not stated)
7. CC1(SCC(N)C(=O)O)CC(=O)NC1=O (configuration not stated)

Result block:
> 100 µM (inactive)
> 100 µM (inactive)
20.5 µM (inactive)
10 µM (inactive)
> 100 µM (inactive)
10.6 µM (inactive)
> 100 µM (inactive)

Please state, for each entry, its recorded GI50.
1. CCNCCNC(=O)c1ccc(Br)cc1
2. c1ccc2/c3[nH]/c(c2c1)=N\c1ccc(cc1)-c1nc2ccc(cc2o1)/N=c1/[nH]/c(c2ccccc12)=N/c1ccc2nc(oc2c1)-c1ccc(cc1)\N=3
3. NNC(=O)CCSc1ccccc1
4. CCC(=O)c1cn(C)c(=O)c2ccccc12
5. CCCCN(CCCC)CCC(O)c1cc(-c2ccc(C(F)(F)F)cc2)nc(-c2ccc(C(F)(F)F)cc2)c1 (configuration not stated)
6. NC(=O)NC12CC3CC(CC(F)(C3)C1)C2
7. O=c1cc(-c2ccc(O)cc2)n(C2CC2)c2ccccc12

Result block:
> 100 µM (inactive)
0.422 µM (active)
> 100 µM (inactive)
> 100 µM (inactive)
> 100 µM (inactive)
> 100 µM (inactive)
19.7 µM (inactive)

Query block: Item [O-][S+]1c2ccccc2N=C(c2cccs2)CC1c1ccccc1O (configuration not stated) has what recorded GI50?
Result block: > 100 µM (inactive)
